experiment: Cell Viability - HUV-EC-C (AID 542); conditions: HUV-EC-C endothelial cell viability, qHTS; series mostly up to 92.2 µM;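 note: cells exposed to compound for 40 hours; nearly all actives have a fitted effect of over 35% in size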
Records with an inconclusive call do not appear. Activity calls are given as the source filed them. Calls come from the whole dose curve; as a rule, active = well fitted cell-killing curve with a large enough effect; inconclusive = small, poorly fitted or top-dose-only effect, or effect the other way; inactive = flat fitted curve, though single readings scatter.
API: response.call in yes (1) = active, no (0) = inactive

[[record]]
compound = "Clc1cccc(Cl)c1Cl"
assigned_category = "no (0)"

[[record]]
compound = "C=C(C)CCl"
assigned_category = "no (0)"

[[record]]
compound = "CC(C)(OOC(C)(C)c1ccccc1)c1ccccc1"
assigned_category = "no (0)"


## Input Returns: the outcome recorded for ClC(Cl)c1ccccc1 in this assay.
## Output no (0)

## Input What do you have for Cc1cccc(C)c1N ?
## Output no (0)

## Input What do you have for Oc1c(Cl)cccc1Cl ?
## Output no (0)

## Input What do you have for O=C(Cl)OCc1ccccc1 ?
## Output no (0)

## Input What do you have for C=CCCC#N ?
## Output no (0)
